# assay_target: F508del (Homo sapiens, UniProt P13569, DEL508-508)
# Construct: expressed in transfected cells
# Sequence (P13569 with tags, fused parts or gaps DEL508-508): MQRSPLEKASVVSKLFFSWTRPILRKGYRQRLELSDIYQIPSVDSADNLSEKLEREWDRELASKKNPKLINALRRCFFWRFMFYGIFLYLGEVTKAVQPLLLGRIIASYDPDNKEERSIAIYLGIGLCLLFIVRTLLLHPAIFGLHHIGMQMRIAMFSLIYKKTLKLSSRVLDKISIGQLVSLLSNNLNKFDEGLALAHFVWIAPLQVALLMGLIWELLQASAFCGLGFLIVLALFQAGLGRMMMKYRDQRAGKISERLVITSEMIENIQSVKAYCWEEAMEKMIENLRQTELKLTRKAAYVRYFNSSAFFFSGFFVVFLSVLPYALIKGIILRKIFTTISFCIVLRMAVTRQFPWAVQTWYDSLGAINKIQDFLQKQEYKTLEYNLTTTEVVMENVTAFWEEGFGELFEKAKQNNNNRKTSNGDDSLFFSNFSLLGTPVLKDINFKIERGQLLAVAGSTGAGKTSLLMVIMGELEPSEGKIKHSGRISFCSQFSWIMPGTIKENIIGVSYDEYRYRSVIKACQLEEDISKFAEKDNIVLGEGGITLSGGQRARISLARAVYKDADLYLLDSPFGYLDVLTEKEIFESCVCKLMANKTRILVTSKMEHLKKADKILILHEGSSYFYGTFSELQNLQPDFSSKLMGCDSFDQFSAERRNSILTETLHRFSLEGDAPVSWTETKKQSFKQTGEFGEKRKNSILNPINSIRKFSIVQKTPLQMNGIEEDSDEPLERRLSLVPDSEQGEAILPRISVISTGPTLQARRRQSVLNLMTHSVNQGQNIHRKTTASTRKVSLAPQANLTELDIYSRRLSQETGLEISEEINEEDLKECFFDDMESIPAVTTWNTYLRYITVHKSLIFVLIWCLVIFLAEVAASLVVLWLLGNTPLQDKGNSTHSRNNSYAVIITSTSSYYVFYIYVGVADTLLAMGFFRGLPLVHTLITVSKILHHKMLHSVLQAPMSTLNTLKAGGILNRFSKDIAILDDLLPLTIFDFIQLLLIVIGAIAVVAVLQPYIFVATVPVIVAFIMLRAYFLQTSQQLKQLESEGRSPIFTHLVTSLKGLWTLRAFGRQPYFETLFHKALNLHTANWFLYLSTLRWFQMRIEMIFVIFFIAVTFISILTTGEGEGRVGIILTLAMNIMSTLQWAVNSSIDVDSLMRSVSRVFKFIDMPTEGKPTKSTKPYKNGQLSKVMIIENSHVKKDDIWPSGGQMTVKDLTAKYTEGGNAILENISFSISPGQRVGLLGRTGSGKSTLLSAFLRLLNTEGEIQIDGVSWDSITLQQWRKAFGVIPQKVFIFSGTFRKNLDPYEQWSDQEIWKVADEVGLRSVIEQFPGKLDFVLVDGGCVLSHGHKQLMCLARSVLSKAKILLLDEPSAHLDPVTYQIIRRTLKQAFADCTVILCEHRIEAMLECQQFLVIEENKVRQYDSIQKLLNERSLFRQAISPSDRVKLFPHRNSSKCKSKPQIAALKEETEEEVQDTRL
# procedure_details: Protocol 1: membrane potential optical assay (FLIPR III, voltage sensing dye), identification of potentiator compounds
# Type: cell-based
# details: Table 3, compounds of Table 1
measured_property: EC30

Worked cases, EC30 given:
1. COc1ncccc1S(=O)(=O)NC(=O)c1cc2c(nc1Oc1ccc(C)cc1C)C(C)(C)CCC2 [Compound 1347] : +++ (“+++” means <3 uM)
2. CC(C)COc1cc(F)cc(-c2ccc(C(=O)NS(=O)(=O)c3cccc(N)n3)c(OCCc3ccccc3)n2)c1 [Compound 1426] : +++ (“+++” means <3 uM)
3. Cc1cc(C)c(Oc2nc(N(C)CC(C)C)c(C)cc2C(=O)NS(=O)(=O)c2cccc(N)n2)c(C)c1 [Compound 1416] : +++ (“+++” means <3 uM)
4. C[C@@H]1CN(c2nc(C(C)(C)C)c(/C=C/C(C)(C)C)cc2C(=O)NS(=O)(=O)c2cccc(N)n2)C(C)(C)C1 [Compound 1613] : +++ (“+++” means <3 uM)
5. Cc1cc(C)c(Oc2nc(-c3cc(F)cc(OC(C)C)c3)ccc2C(=O)NS(=O)(=O)c2cc[nH]n2)c(C)c1 [Compound 914] : +++ (“+++” means <3 uM)

Parameters: items (list). Returns: EC30 for each item.
1. CC(C)COc1cc(F)cc(-c2ccc(C(=O)NS(=O)(=O)c3cccc(N)n3)c(N3CCC(Cc4ccccc4)C3C)n2)c1 (stereo not shown) [Compound 969]
2. CC(C)COc1cc(F)cc(-c2ccc(C(=O)NS(=O)(=O)c3cccc(N)n3)c(OC3CC3)n2)c1 [Compound 1446]

Resp:
+++ (“+++” means <3 uM)
+++ (“+++” means <3 uM)

* * *

# assay_target: F508del (Homo sapiens, UniProt P13569, DEL508-508)
# Construct: expressed in transfected cells
# procedure_details: Protocol 1: membrane potential optical assay (FLIPR III, voltage sensing dye), identification of potentiator compounds
# Type: cell-based
# details: Table 3, compounds of Table 1
measured_property: EC30

1. CC1CCN(c2nc(-c3ccc(C(C)C)cc3)ccc2C(=O)NS(=O)(=O)c2cccc(N)n2)CC1 : +++ (“+++” means <3 uM)
2. CC(C)COc1ccn(-c2ccc(C(=O)NS(=O)(=O)c3cccc(N)n3)c(N3C[C@@H](C)CC3(C)C)n2)n1 : +++ (“+++” means <3 uM)
3. Cc1cc(C)c(Oc2nc(C3=CCC(C(C)C)CC3)ccc2C(=O)NS(=O)(=O)c2cccc(N)n2)c(C)c1 (stereo not shown) : +++ (“+++” means <3 uM)

* * *

# assay_target: F508del (Homo sapiens, UniProt P13569, DEL508-508)
# Construct: expressed in transfected cells
# procedure_details: Protocol 2: FRET membrane potential optical assay (VIPR), identification of correction compounds
# Assay type: cell-based
# details: Table 3; compounds of Table 1 as modulators of CFTR activity; protocol not stated
measured_property: EC30

1) Cc1cc(C)c(Cn2nc(C(C)(C)C)cc2C(=O)NS(=O)(=O)c2ccccc2)c(C)c1 [Compound 45] : +++ (“+++” means <3 uM)
2) CC(C)COc1cc(F)cc(-c2ccc(C(=O)NS(=O)(=O)c3cccc(N)n3)c(OC3CCC(C)C3)n2)c1 (stereo not shown) [Compound 452] : +++ (“+++” means <3 uM)
3) Cc1cc(C)c(Oc2nc(-c3ccc(C(F)(F)F)cc3)ccc2C(=O)NS(=O)(=O)c2cccc(N)n2)c(C)c1 [Compound 548] : +++ (“+++” means <3 uM)

* * *

Provide the recorded EC30 for the entries that follow.
# assay_target: F508del (Homo sapiens, UniProt P13569, DEL508-508)
# Construct: expressed in transfected cells
# procedure_details: Protocol 2: FRET membrane potential optical assay (VIPR), identification of correction compounds
# Format: cell-based
# details: F508del CFTR modulator activity; compounds of Table 1; read-out: EC30

Worked cases, EC30 given:
1) CC1CN(c2ncccc2C(=O)NS(=O)(=O)c2cccc(OCCN)n2)C(C)(C)C1 (stereo not drawn) : 3 to 10 µM
2) CC1CN(c2ncccc2C(=O)NS(=O)(=O)c2cccc(OCc3ccc(Cl)cc3F)n2)C(C)(C)C1 (stereo not drawn) : < 3 µM
3) CCOc1cc(-c2ccc(C(=O)NS(=O)(=O)c3cccc(N)n3)c(N3C[C@@H](C)CC3(C)C)n2)cc(C)n1 : < 3 µM

Parameters: items (list). Returns: EC30 for each item.
1. CC(C)COc1cc(F)cc(-c2ccc(C(=O)NS(=O)(=O)N3CC[C@@H](O)C3)c(N3C[C@@H](C)CC3(C)C)n2)c1
2. CC#CCOc1cccc(S(=O)(=O)NC(=O)c2cccnc2N2CC(C)CC2(C)C)n1 (stereo not drawn)

Resp:
< 3 µM
3 to 10 µM

Parameters: items (list). Returns: EC30 for each item.
1. Cc1cccc(-c2ccc(C(=O)NS(=O)(=O)c3ccc[nH]c3=O)c(N3C[C@@H](C)CC3(C)C)n2)c1O
2. COc1ccc(Nc2cccc(S(=O)(=O)NC(=O)c3cccnc3N3CC(C)CC3(C)C)n2)cc1OC (stereo not drawn)
3. CC(C)CCOc1cccc(S(=O)(=O)NC(=O)c2cccnc2N2CC(C)CC2(C)C)n1 (stereo not drawn)
4. CC1CN(c2ncccc2C(=O)NS(=O)(=O)c2cccc(OC3CCCC(C)(C)C3)n2)C(C)(C)C1 (stereo not drawn)
5. COc1cccc(F)c1-c1ccc(C(=O)NS(=O)(=O)c2cccnc2N)c(N2C[C@@H](C)CC2(C)C)n1
6. CC1CN(c2ncccc2C(=O)NS(=O)(=O)c2cccc(NCc3cccc(Cl)c3)n2)C(C)(C)C1 (stereo not drawn)
7. COc1ccc(Cl)cc1COc1cccc(S(=O)(=O)NC(=O)c2cccnc2N2CC(C)CC2(C)C)n1 (stereo not drawn)
8. CC1CN(c2ncccc2C(=O)NS(=O)(=O)c2cccc(Oc3ccc(Cl)cc3)n2)C(C)(C)C1 (stereo not drawn)

Resp:
["3 to 10 µM", "< 3 µM", "< 3 µM", "< 3 µM", "< 3 µM", "< 3 µM", "< 3 µM", "< 3 µM"]

Parameters: items (list). Returns: EC30 for each item.
1. CC1CN(c2ncccc2C(=O)NS(=O)(=O)c2cccc(N3CCCc4ccccc43)n2)C(C)(C)C1 (stereo not drawn)
2. Cc1ccc(F)cc1-c1ccc(C(=O)NS(=O)(=O)c2ccc[nH]c2=O)c(N2C[C@@H](C)CC2(C)C)n1

Resp:
< 3 µM
< 3 µM

* * *

# assay_target: F508del (Homo sapiens, UniProt P13569, DEL508-508)
# Construct: expressed in transfected cells
# procedure_details: Protocol 1: membrane potential optical assay (FLIPR III, voltage sensing dye), identification of potentiator compounds
# Type: cell-based
# details: Table 3, compounds of Table 1
measured_property: EC30

Worked cases, EC30 given:
1. CC(C)COc1cc(F)cc(-c2ccc(C(=O)NS(=O)(=O)c3cccc(N)n3)c(OC(C)CC3CCOCC3)n2)c1 (stereo not shown) : +++ (“+++” means <3 uM)
2. CC(C)COc1cc(F)cc(-c2ccc(C(=O)NS(=O)(=O)c3cccc(N)n3)c(OCC3CC3(C)C)n2)c1 (stereo not shown) : +++ (“+++” means <3 uM)
3. CC(C)Oc1ccc(-c2ccc(C(=O)NS(=O)(=O)c3cccc(N)n3)c(N3CCC(Oc4ccccc4)CC3)n2)cn1 : +++ (“+++” means <3 uM)
4. COc1cc(F)c(F)cc1-c1ccc(C(=O)NS(=O)(=O)c2ccc[nH]c2=O)c(N2C[C@@H](C)CC2(C)C)n1 : +++ (“+++” means <3 uM)

Now consider a different compound.
Req: Consider the compound Cc1cc(C)c(Oc2nc(-c3ccccc3C)ccc2C(=O)NS(=O)(=O)c2cccc(N)n2)c(C)c1 . State its measured EC30.
Resp: +++ (“+++” means <3 uM)

* * *

# assay_target: F508del (Homo sapiens, UniProt P13569, DEL508-508)
# Construct: expressed in transfected cells
# procedure_details: Protocol 2: FRET membrane potential optical assay (VIPR), identification of correction compounds
# Assay type: cell-based
# details: Table 3; compounds of Table 1 as modulators of CFTR activity; protocol not stated
measured_property: EC30

1) Cc1cccc(C)c1Cn1nc(C2CC3CCC2C3)cc1C(=O)NS(=O)(=O)c1cccc(N)c1 (stereo not shown) [Compound 370] : +++ (“+++” means <3 uM)
2) CC(C)COc1cc(F)cc(-c2ccc(C(=O)NS(=O)(=O)c3ccn[nH]3)c(N3CCCCC3)n2)c1 [Compound 355] : +++ (“+++” means <3 uM)

* * *

# assay_target: F508del (Homo sapiens, UniProt P13569, DEL508-508)
# Construct: expressed in transfected cells
# procedure_details: Protocol 2: FRET membrane potential optical assay (VIPR), identification of correction compounds
# Type: cell-based
# details: F508del CFTR modulator activity; compounds of Table 1; read-out: EC30
Provide the recorded EC30 for the entries that follow.

Worked cases, EC30 given:
1) CCOc1ccc(Nc2cccc(S(=O)(=O)NC(=O)c3cccnc3N3CC(C)CC3(C)C)n2)cc1 (stereo not shown) : < 3000 nM
2) CC(C)COc1cc(F)cc(-c2ccc(C(=O)NS(=O)(=O)N3C[C@@H](O)[C@H](O)C3)c(N3C[C@@H](C)CC3(C)C)n2)c1 : < 3000 nM
3) CCOc1ccc(F)c(-c2ccc(C(=O)NS(=O)(=O)c3cccnc3N)c(N3C[C@@H](C)CC3(C)C)n2)c1 : < 3000 nM
4) COc1ccc(-c2ccc(C(=O)NS(=O)(=O)c3ccc[nH]c3=O)c(N3C[C@@H](C)CC3(C)C)n2)cc1F : 3000 to 10000 nM
5) Cc1cccc(-c2ccc(C(=O)NS(=O)(=O)c3ccccc3)c(N3C[C@@H](C)CC3(C)C)n2)c1O : < 3000 nM

Parameters: items (list). Returns: EC30 for each item.
1. Cc1ccc(-c2ccc(C(=O)NS(=O)(=O)c3cccnc3N)c(N3C[C@@H](C)CC3(C)C)n2)cc1C
2. CC1CN(c2ncccc2C(=O)NS(=O)(=O)c2cccc(Nc3ccccc3C#N)n2)C(C)(C)C1 (stereo not shown)

Resp:
< 3000 nM
3000 to 10000 nM
